biological target: Gastrin-releasing peptide receptor (Mus musculus); test: Ability of peptide to inhibit binding of 10 pM [125I]gastrin releasing peptide to S-3T3 cell membrane.; assay type: cell-based
pIC50: −log10 of the molar value. Where a SMILES comes first, the peptide text is derived from it. [ ]: non-standard residue; d: D form. The star is where a group is joined. dProψ(CH2NH)PheNH2 = NC(=O)[C@H](Cc1ccccc1)NC[C@H]1CCCN1*; X3 = NC(=O)[C@H](Cc1ccc(O)cc1)NC[C@H]1CCCN1*; Hydrocinnamoyl = O=C(CCc1ccccc1)*; X2 = O=C(Cc1ccccc1C(F)(F)F)*; X5 = C[C@@H](C(=O)*)c1ccccc1
outcome measure: pIC50

Reference set, count: 4
- compound: "CC(C)[C@H](NC(=O)[C@H](C)NC(=O)[C@H](Cc1c[nH]c2ccccc12)NC(=O)[C@H](Cc1c[nH]cn1)NC(=O)[C@H](C)c1ccccc1)C(=O)N[C@H](C)C(=O)N[C@@H](Cc1c[nH]cn1)C(=O)N1CCC[C@@H]1CN[C@@H](Cc1ccccc1)C(N)=O (X5-HWAV[dA]H-{dProψ(CH2NH)PheNH2})"
  outcome measure: "pIC50"
  measurement: 9.02
- compound: "CC(C)[C@H](NC(=O)[C@H](C)NC(=O)[C@H](Cc1c[nH]c2ccccc12)NC(=O)[C@H](Cc1cnc[nH]1)NC(=O)CCc1ccccc1)C(=O)N[C@H](C)C(=O)N[C@@H](Cc1cnc[nH]1)C(=O)N1CCC[C@@H]1CN[C@H](Cc1ccc2ccccc2c1)C(N)=O"
  outcome measure: "pIC50"
  measurement: 8.70
- compound: "CC(C)[C@H](NC(=O)[C@H](C)NC(=O)[C@H](Cc1c[nH]c2ccccc12)NC(=O)[C@H](Cc1c[nH]cn1)NC(=O)CCc1ccccc1)C(=O)N[C@H](C)C(=O)N[C@@H](Cc1c[nH]cn1)C(=O)N1CCC[C@@H]1CN[C@@H](Cc1ccc(O)cc1)C(N)=O (Hydrocinnamoyl-HWAV[dA]H-X3)"
  outcome measure: "pIC50"
  measurement: 9.48
- compound: "CC(C)[C@H](NC(=O)[C@H](C)NC(=O)[C@H](Cc1c[nH]c2ccccc12)NC(=O)[C@H](Cc1c[nH]cn1)NC(=O)Cc1ccccc1C(F)(F)F)C(=O)N[C@H](C)C(=O)N[C@@H](Cc1c[nH]cn1)C(=O)N1CCC[C@@H]1CN[C@@H](Cc1ccccc1)C(N)=O (X2-HWAV[dA]H-{dProψ(CH2NH)PheNH2})"
  outcome measure: "pIC50"
  measurement: 7.92

(1) CC(NC(=O)[C@H](Cc1c[nH]c2ccccc12)NC(=O)[C@H](Cc1c[nH]cn1)NC(=O)CCc1ccccc1)C(=O)N[C@H](C(=O)NC(C)C(=O)N[C@@H](Cc1c[nH]cn1)C(=O)N1CCC[C@@H]1C(O)CC(=O)N[C@@H](Cc1ccccc1)C(N)=O)C(C)C (stereo in doubt)
(2) CC(C)[C@H](NC(=O)[C@H](C)NC(=O)[C@H](Cc1c[nH]c2ccccc12)NC(=O)[C@H](Cc1cnc[nH]1)NC(=O)C[C@H](C)c1ccccc1)C(=O)N[C@H](C)C(=O)N[C@@H](Cc1cnc[nH]1)C(=O)N1CCC[C@@H]1CN[C@@H](Cc1ccccc1)C(N)=O
Would you kindly point out which of 1 and 2 has the smaller pIC50 figure? Selection: enter the item's label.
1
(1: 6.85, 2: 9.68)

###

target: Gastrin-releasing peptide receptor (Mus musculus, UniProt P21729); test: Ability of peptide to inhibit binding of 10 pM [125I]gastrin releasing peptide to S-3T3 cell membrane.; format: cell-based
Sequence (P21729 whole entry): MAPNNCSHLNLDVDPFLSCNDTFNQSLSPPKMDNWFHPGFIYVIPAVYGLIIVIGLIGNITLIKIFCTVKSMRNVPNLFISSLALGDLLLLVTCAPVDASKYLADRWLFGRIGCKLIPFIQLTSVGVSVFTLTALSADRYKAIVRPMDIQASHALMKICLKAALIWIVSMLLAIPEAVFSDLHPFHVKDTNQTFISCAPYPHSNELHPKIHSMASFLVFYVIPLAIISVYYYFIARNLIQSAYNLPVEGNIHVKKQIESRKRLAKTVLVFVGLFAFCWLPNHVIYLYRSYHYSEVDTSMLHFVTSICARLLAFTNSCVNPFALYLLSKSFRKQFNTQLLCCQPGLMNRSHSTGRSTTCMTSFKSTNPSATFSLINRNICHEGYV
pIC50: −log10 of the molar value. Where a SMILES comes first, the peptide text is derived from it. [ ]: non-standard residue; d: D form. The star is where a group is joined. dProψ(CH2NH)PheNH2 = NC(=O)[C@H](Cc1ccccc1)NC[C@H]1CCCN1*; X9 = O=C(CCN1c2ccccc2Sc2ccccc21)*
outcome measure: pIC50

- compound: "CC(C)[C@H](NC(=O)[C@H](C)NC(=O)[C@H](Cc1c[nH]c2ccccc12)NC(=O)[C@H](Cc1c[nH]cn1)NC(=O)CCN1c2ccccc2Sc2ccccc21)C(=O)N[C@H](C)C(=O)N[C@@H](Cc1c[nH]cn1)C(=O)N1CCC[C@@H]1CN[C@@H](Cc1ccccc1)C(N)=O (X9-HWAV[dA]H-{dProψ(CH2NH)PheNH2})"
  pIC50: 8.72

(I) CC(C)[C@H](NC(=O)[C@H](C)NC(=O)[C@H](Cc1c[nH]c2ccccc12)NC(=O)[C@H](Cc1c[nH]cn1)NC(=O)CCc1ccccc1)C(=O)N[C@H](C)C(=O)N[C@@H](Cc1c[nH]cn1)C(=O)N1CCC[C@@H]1CNC(Cc1ccccc1)C(N)=O (stereo in doubt)
(II) CC(C)[C@H](NC(=O)[C@H](C)NC(=O)[C@H](Cc1c[nH]c2ccccc12)NC(=O)[C@H](Cc1cnc[nH]1)NC(=O)Cc1ccc(C(F)(F)F)cc1)C(=O)N[C@H](C)C(=O)N[C@@H](Cc1cnc[nH]1)C(=O)N1CCC[C@@H]1CN[C@@H](Cc1ccccc1)C(N)=O
(III) CC(C)[C@H](NC(=O)[C@H](C)NC(=O)[C@H](Cc1c[nH]c2ccccc12)NC(=O)[C@H](Cc1cnc[nH]1)NC(=O)c1cc2ccccc2cn1)C(=O)N[C@H](C)C(=O)N[C@@H](Cc1cnc[nH]1)C(=O)N1CCC[C@@H]1CN[C@@H](Cc1ccccc1)C(N)=O
Reorder: pIC50, max to min. Reply format: the labels, ordered as requested.
I, III, II
(I: 10.42, III: 9.24, II: 8.43)

###

target: UniProtKB P21729; experiment: Ability of peptide to inhibit binding of 10 pM [125I]gastrin releasing peptide to S-3T3 cell membrane.; assay type: cell-based
pIC50: −log10 of the molar value. Where a SMILES comes first, the peptide text is derived from it. [ ]: non-standard residue; d: D form. The star is where a group is joined. dProψ(CH2NH)PheNH2 = NC(=O)[C@H](Cc1ccccc1)NC[C@H]1CCCN1*; Desaminotyrosyl = O=C(CCc1ccc(O)cc1)*
outcome measure: pIC50

Reference set, count: 2
- compound: "CC(C)[C@H](NC(=O)[C@H](C)NC(=O)[C@H](Cc1c[nH]c2ccccc12)NC(=O)[C@H](Cc1c[nH]cn1)NC(=O)C1C[C@@H]1c1ccccc1)C(=O)N[C@H](C)C(=O)N[C@@H](Cc1c[nH]cn1)C(=O)N1CCC[C@@H]1CN[C@@H](Cc1ccccc1)C(N)=O (some centres undefined)"
  pIC50: 10.31
- compound: "CC(C)[C@H](NC(=O)[C@H](C)NC(=O)[C@H](Cc1c[nH]c2ccccc12)NC(=O)[C@H](Cc1cnc[nH]1)NC(=O)CCc1ccc(O)cc1)C(=O)N[C@H](C)C(=O)N[C@@H](Cc1cnc[nH]1)C(=O)N1CCC[C@@H]1CN[C@@H](Cc1ccccc1)C(N)=O (Desaminotyrosyl-HWAV[dA]H-{dProψ(CH2NH)PheNH2})"
  pIC50: 9.64

(a) CC(C)CC(NC(=O)[C@H](Cc1c[nH]cn1)NC(=O)C(C)NC(=O)[C@@H](NC(=O)C(C)NC(=O)[C@H](Cc1c[nH]c2ccccc12)NC(=O)[C@H](Cc1c[nH]cn1)NC(=O)CCc1ccccc1)C(C)C)C(O)CC(=O)N[C@@H](Cc1ccccc1)C(N)=O (stereo in doubt)
(b) CC(C)[C@H](NC(=O)[C@H](C)NC(=O)[C@H](Cc1c[nH]c2ccccc12)NC(=O)[C@H](Cc1cnc[nH]1)NC(=O)C[C@@H](C)c1ccccc1)C(=O)N[C@H](C)C(=O)N[C@@H](Cc1cnc[nH]1)C(=O)N1CCC[C@@H]1CN[C@@H](Cc1ccccc1)C(N)=O
Would you kindly point out which of a and b has the smaller pIC50 figure? Selection: enter the item's label.
a

###

The reader will find reported IC50 values listed item by item below.
target: Gastrin-releasing peptide receptor (Mus musculus); assay: Ability of peptide to inhibit binding of 10 pM [125I]gastrin releasing peptide to S-3T3 cell membrane.; format: cell-based
Where a SMILES comes first, the peptide text is derived from it. [ ]: non-standard residue; d: D form. The star is where a group is joined. dProψ(CH2NH)PheNH2 = NC(=O)[C@H](Cc1ccccc1)NC[C@H]1CCCN1*; X7 = CC(C)(CC(=O)*)c1ccccc1
Answer with a number only, understood to be in µM.

- molecule: "CC(C)[C@H](NC(=O)[C@H](C)NC(=O)[C@H](Cc1c[nH]c2ccccc12)NC(=O)[C@H](Cc1c[nH]cn1)NC(=O)CC(C)(C)c1ccccc1)C(=O)N[C@H](C)C(=O)N[C@@H](Cc1c[nH]cn1)C(=O)N1CCC[C@@H]1CN[C@@H](Cc1ccccc1)C(N)=O (X7-HWAV[dA]H-{dProψ(CH2NH)PheNH2})"
  units label: "µM"
  measurement: 0.0012

Query molecule follows.
Given the entry CC(NC(=O)[C@H](Cc1c[nH]c2ccccc12)NC(=O)[C@H](Cc1cccs1)NC(=O)CCc1ccccc1)C(=O)N[C@H](C(=O)NC(C)C(=O)N[C@@H](Cc1c[nH]cn1)C(=O)N1CCC[C@H]1CN[C@@H](Cc1ccccc1)C(N)=O)C(C)C (stereo in doubt) , report its measured IC50.
0.056
